Catalogue of protein stability index values
B1: MATN2 (parent)
chain: TDDSYSCHCLKGFTLNPDKKTCRR

# Variants of: B1
# TEST: protein stability index of a GFP-peptide fusion (GPS, HEK-293T) (PSI 1-6); higher = more stable;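 note: lentivirally expressed fusions sorted by FACS into six bins by GFP to DsRed ratio, PSI derived from sequencing read proportions per bin multiplied by bin number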
# CONDITION_CONTEXT: c terminus: a fixed tail appended
Just the number, please, no unit attached.

# annotated cases, reported protein stability index shown
{"VARIANT_SPEC": "K20P", "protein stability index": 1.93}
{"VARIANT_SPEC": "N16W", "protein stability index": 1.6}
{"VARIANT_SPEC": "N16K", "protein stability index": 2.33}
{"VARIANT_SPEC": "T1G", "protein stability index": 2.71}
{"VARIANT_SPEC": "L15F", "protein stability index": 2.86}

Data point: `C9V` ; protein stability index = 3.73

Data point: `G12S` ; protein stability index = 2.1

Data point: `T21R` ; protein stability index = 2.34

Data point: `Y5Q` ; protein stability index = 3.42

Data point: `F13K` ; protein stability index = 2.55

Data point: `T21L` ; protein stability index = 2.15

Data point: `R24D` ; protein stability index = 3.73

Data point: `F13T` ; protein stability index = 2.3

Data point: `S4N` ; protein stability index = 1.23

Data point: `K20S` ; protein stability index = 2.33
